system: TRZAS; experiment: Pre-emergence effects on crop plants (Table D2); type: in vivo, Triticum aestivum; settings: crop plant; application rate 320 g/ha; visual grading after ca. 3 weeks
test.readout: pre-emergence activity against TRZAS (%)

Example results:
{"compound": "O=C1N(Cc2cccc(F)c2Cl)CCCC12CCCN(Cc1cccc(F)c1Cl)C2=O (racemic)", "tgt": "TRZAS", "units.symbol": "%", "pre-emergence activity against TRZAS": 20}
{"compound": "Cc1cccc(CN2CCCC3(CCCN(Cc4cccc(C)c4F)C3=O)C2=O)c1F (racemic)", "tgt": "TRZAS", "units.symbol": "%", "pre-emergence activity against TRZAS": 0}
{"compound": "O=C1N(Cc2c(F)cccc2Cl)CCCC12CCCN(Cc1c(F)cccc1Cl)C2=O (racemic)", "tgt": "TRZAS", "units.symbol": "%", "pre-emergence activity against TRZAS": 0}
{"compound": "O=C1N(Cc2ccccc2F)CCCC12CCN(Cc1ccccc1Cl)C2=O (racemic)", "tgt": "TRZAS", "units.symbol": "%", "pre-emergence activity against TRZAS": 0}
{"compound": "CC(c1ccccc1F)N1CCCC2(CCCN(C(C)c3ccccc3F)C2=O)C1=O (stereo not shown)", "tgt": "TRZAS", "units.symbol": "%", "pre-emergence activity against TRZAS": 10}
{"compound": "O=C1N(Cc2cc(F)ccc2F)CCCC12CCCN(Cc1cc(F)ccc1F)C2=O (racemic)", "tgt": "TRZAS", "units.symbol": "%", "pre-emergence activity against TRZAS": 10}
{"compound": "O=C1N(Cc2cccc(F)c2F)CCCC12CCN(Cc1cccc(F)c1F)C2=O (racemic)", "tgt": "TRZAS", "units.symbol": "%", "pre-emergence activity against TRZAS": 10}

(A) CC(c1c(F)cccc1F)N1CCCC2(CCCN(C(C)c3c(F)cccc3F)C2=O)C1=O (stereo not shown)
(B) O=C1N(Cc2ccc(Cl)s2)CCCC12CCCN(Cc1ccc(Cl)s1)C2=O (racemic)
(C) O=C1N(Cc2cc(F)ccc2Cl)CCCC12CCCN(Cc1cc(F)ccc1Cl)C2=O (racemic)
// ranking: key=pre-emergence activity against TRZAS, reverse=True The response must list the labels following the requested ordering. A, B, C

###

tested on: MATIN; test: Herbicidal pre-emergence action, section C (Table C8); assay type: in vivo, Matricaria inodora; conditions: application rate 320 g/ha; visual grading after ca. 3 weeks
Each entry below carries its reported pre-emergence activity against MATIN.
// units = %; emit number, no label

{"compound": "O=C1N(Cc2cc(F)ccc2F)CCCC12CCCN(Cc1cc(F)ccc1F)C2=O (racemic)", "experimental.result": 80}

For the record O=C1N(Cc2ccccc2F)CCCC12CCN(Cc1ccccc1F)C2=O (racemic) , what value of pre-emergence activity against MATIN is listed for MATIN? 90

Next compound: O=C1N(Cc2ccccc2F)CCCC12CCN(Cc1cccc(F)c1F)C2=O (racemic) 90

Repeat for the following compound: O=C1N(Cc2ccccc2F)CCC12CCCN(Cc1c(F)cccc1F)C2=O (racemic) 90

###

system: ABUTH; assay: Herbicidal post-emergence action, section E (Table E1); type: in vivo, Abutilon theophrasti; settings: application rate 320 g/ha; assessed visually after ca. 3 weeks
test.readout: post-emergence activity against ABUTH (%)
Note: unit % is implicit; provide only the numeric part.

Reference set (6 entries):
{"compound": "O=C1N(Cc2c(F)cccc2F)CCCC12CCCN(Cc1c(F)cccc1F)C2=O (racemic) [I-006]", "experimental.result": 80}
{"compound": "O=C1N(Cc2ccccc2)CCCC12CCCN(Cc1ccccc1F)C2=O (racemic) [I-010]", "experimental.result": 80}
{"compound": "O=C1N(Cc2c(F)cccc2F)CCCC12CCN(Cc1c(F)cccc1F)C2=O (racemic) [I-037]", "experimental.result": 80}
{"compound": "O=C1N(Cc2cccc(F)c2F)CCCC12CCN(Cc1cccc(F)c1F)C2=O (racemic) [I-025]", "experimental.result": 80}
{"compound": "O=C1N(Cc2ccccc2F)CCCC12CCCN(Cc1ccccc1F)C2=O (single isomer, unassigned) [I-001]", "experimental.result": 80}
{"compound": "O=C1N(Cc2ccccc2Cl)CCCC12CCN(Cc1cccc(F)c1F)C2=O (racemic) [I-035]", "experimental.result": 90}

Switching to the query record.
Report post-emergence activity against ABUTH for O=C1N(Cc2ccccc2F)CCCC12CCN(Cc1c(F)cccc1F)C2=O (racemic) [I-020] please. 80

###

test system: BRSNW; experiment: Pre-emergence effects on crop plants (Table D5); format: in vivo, Brassica napus; details: crop plant; application rate 80 g/ha; visual grading after ca. 3 weeks
test.readout: pre-emergence activity against BRSNW (%)

Examples with their reported pre-emergence activity against BRSNW follow.
{"compound": "O=C1N(Cc2ccc(Cl)s2)CCCC12CCCN(Cc1ccc(Cl)s1)C2=O (racemic)", "tgt": "BRSNW", "test.readout": "pre-emergence activity against BRSNW", "experimental.result": 0}
{"compound": "CC(c1c(F)cccc1F)N1CCCC2(CCCN(C(C)c3c(F)cccc3F)C2=O)C1=O (centres unmarked)", "tgt": "BRSNW", "test.readout": "pre-emergence activity against BRSNW", "experimental.result": 0}

(1) O=C1N(Cc2ccccc2Cl)CCC12CCCN(Cc1c(F)cccc1F)C2=O (racemic)
(2) O=C1N(Cc2ccsc2)CCCC12CCCN(Cc1cccc(F)c1F)C2=O (racemic)
Please indicate which item has the smaller measured pre-emergence activity against BRSNW: 1 versus 2 Mark your selection by writing its label. 1
(1: 0%, 2: 20%)

###

test system: ORYZA; assay: Pre-emergence effects on crop plants (Table D3); settings: crop plant; application rate 80 g/ha; visual grading after ca. 3 weeks
test.readout: pre-emergence activity against ORYZA (%)

{"compound": "O=C1N(Cc2ccccc2F)CCCC12CCCN(Cc1ccccc1F)C2=O (racemic)", "tgt": "ORYZA", "units.symbol": "%", "pre-emergence activity against ORYZA": 20}
{"compound": "O=C1N(Cc2ccccc2Br)CCCC12CCCN(Cc1c(F)cccc1F)C2=O (racemic)", "tgt": "ORYZA", "units.symbol": "%", "pre-emergence activity against ORYZA": 0}

(1) O=C1N(Cc2ccccc2F)CCCC12CCN(Cc1ccccc1F)C2=O (racemic)
(2) COc1ccccc1CN1CCCC2(CCCN(Cc3cccc(F)c3F)C2=O)C1=O (racemic)
(3) O=C1N(Cc2cccs2)CCCC12CCCN(Cc1c(F)cccc1F)C2=O (racemic)
// ascending sort on recorded pre-emergence activity against ORYZA Answer by naming the labels in the order asked. 1, 3, 2
(1: 0%, 3: 10%, 2: 20%)

(a) O=C1N(Cc2ccccc2F)CCCC12CCN(Cc1c(F)cccc1F)C2=O (racemic)
(b) O=C1N(Cc2ccccc2F)CCCC12CCCN(Cc1cccc(F)c1F)C2=O (racemic)
Which is greater in pre-emergence activity against ORYZA, the first item a or the second item b ? Write the label of whichever entry you select. b
(b: 20%, a: 0%)

###

Reported pre-emergence activity against MATIN values follow for various compounds
tested on: MATIN; test: Herbicidal pre-emergence action, section C (Table C8); assay type: in vivo, Matricaria inodora; settings: application rate 320 g/ha; visual grading after ca. 3 weeks
Quick note: give the figure in %, leave out the unit.

Guide cases for pre-emergence activity against MATIN, answers given:
{"compound": "O=C1N(Cc2cccc(F)c2F)CCC12CCCN(Cc1c(F)cccc1F)C2=O (racemic)", "tgt": "MATIN", "units.symbol": "%", "experimental.result": 90}
{"compound": "O=C1N(Cc2cccc(F)c2F)CCCC12CCN(Cc1c(F)cccc1F)C2=O (racemic)", "tgt": "MATIN", "units.symbol": "%", "experimental.result": 80}
{"compound": "O=C1N(Cc2ccccc2)CCCC12CCCN(Cc1ccccc1F)C2=O (racemic)", "tgt": "MATIN", "units.symbol": "%", "experimental.result": 90}

Pending compound:
Record request: pre-emergence activity against MATIN value, item O=C1N(Cc2c(F)cccc2F)CCCC12CCN(Cc1c(F)cccc1F)C2=O (racemic) 80
